// conversion of 0708-30 by PAD2, 10 µM inhibitor (0 µM: 68) lookup, one value per entry
# targetUnderTest: recombinant human PAD2 (human, UniProt Q9Y2J8 1-665)
# Sequence (Q9Y2J8 whole entry): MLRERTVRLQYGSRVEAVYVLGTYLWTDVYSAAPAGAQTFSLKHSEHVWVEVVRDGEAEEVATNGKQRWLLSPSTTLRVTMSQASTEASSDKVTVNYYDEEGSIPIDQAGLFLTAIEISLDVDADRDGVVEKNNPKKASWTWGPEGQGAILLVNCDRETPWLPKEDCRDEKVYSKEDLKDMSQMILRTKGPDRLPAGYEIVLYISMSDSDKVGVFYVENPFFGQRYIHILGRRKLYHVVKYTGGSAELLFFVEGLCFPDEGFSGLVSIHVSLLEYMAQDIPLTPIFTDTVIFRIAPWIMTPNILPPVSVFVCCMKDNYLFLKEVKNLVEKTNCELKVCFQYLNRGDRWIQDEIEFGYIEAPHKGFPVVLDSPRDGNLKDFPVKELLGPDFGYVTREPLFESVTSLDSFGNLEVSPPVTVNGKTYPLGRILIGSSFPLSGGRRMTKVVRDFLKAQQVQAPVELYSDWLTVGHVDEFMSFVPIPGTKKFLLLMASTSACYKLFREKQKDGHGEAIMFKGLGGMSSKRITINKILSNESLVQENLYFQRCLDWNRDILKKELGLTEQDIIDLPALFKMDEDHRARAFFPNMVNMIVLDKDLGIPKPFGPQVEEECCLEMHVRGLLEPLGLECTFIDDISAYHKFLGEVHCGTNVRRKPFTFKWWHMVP
# assayComment: cell-based or functional assay
Square brackets hold non-standard residues; d marks the D form. Orn(fluoroacetimidoyl) = N=C(CF)NCCC[C@H](N)C(=O)O
measuredAttribute: conversion of 0708-30 by PAD2, 10 µM inhibitor (0 µM: 68) (%)

binder | quantitativeReadout
Ac-KLH[Orn(fluoroacetimidoyl)]EWM-NH2 (SMILES CSCC[C@H](NC(=O)[C@H](Cc1c[nH]c2ccccc12)NC(=O)[C@H](CCC(=O)O)NC(=O)[C@H](CCCNC(=N)CF)NC(=O)[C@H](Cc1c[nH]cn1)NC(=O)[C@H](CC(C)C)NC(=O)[C@H](CCCCN)NC(C)=O)C(N)=O) [0748-17FA] | 58
Ac-KWH[Orn(fluoroacetimidoyl)]DFF-NH2 (SMILES CC(=O)N[C@@H](CCCCN)C(=O)N[C@@H](Cc1c[nH]c2ccccc12)C(=O)N[C@@H](Cc1c[nH]cn1)C(=O)N[C@@H](CCCNC(=N)CF)C(=O)N[C@@H](CC(=O)O)C(=O)N[C@@H](Cc1ccccc1)C(=O)N[C@@H](Cc1ccccc1)C(N)=O) [0748-09FA] | 23
